target: Orexin/Hypocretin receptor type 1 (Homo sapiens); test: Antagonist activity against human OX1R expressed in CHOK1 cells assessed as inhibition of orexin A-induced […] Ca2+ mobilization by FLIPR assay
Sequence (O43613 whole entry): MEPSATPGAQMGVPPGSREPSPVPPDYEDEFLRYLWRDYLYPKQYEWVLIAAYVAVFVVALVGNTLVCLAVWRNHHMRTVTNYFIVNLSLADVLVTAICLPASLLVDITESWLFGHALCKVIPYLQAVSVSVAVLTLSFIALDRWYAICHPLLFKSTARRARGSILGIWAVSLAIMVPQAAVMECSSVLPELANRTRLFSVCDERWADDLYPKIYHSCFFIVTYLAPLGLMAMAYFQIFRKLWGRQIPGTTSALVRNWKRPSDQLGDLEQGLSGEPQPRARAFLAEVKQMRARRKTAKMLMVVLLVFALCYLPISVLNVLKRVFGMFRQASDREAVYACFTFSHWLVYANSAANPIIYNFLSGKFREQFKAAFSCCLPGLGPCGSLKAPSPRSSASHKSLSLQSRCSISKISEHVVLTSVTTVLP
pIC50: −log10 of the molar value.
Outcome Measure: pIC50

• Cc1ccc(O[C@@H]2CC[C@@H](C)N(C(=O)c3ccccc3-n3nccn3)C2)nc1 = 6.85
• C#Cc1ccnc(O[C@@H]2CC[C@@H](C)N(C(=O)c3ccccc3-n3nccn3)C2)c1 = 6.62
• Cc1nc(-c2ccccc2C(=O)N2C[C@H](Oc3cc(C#N)ccn3)CC[C@H]2C)no1 = 5.08
• CSc1ccnc(O[C@@H]2CC[C@@H](C)N(C(=O)c3ccccc3-n3nccn3)C2)c1 = 6.96

a = C[C@@H]1CC[C@@H](Oc2cc(C(F)(F)F)ccn2)CN1C(=O)c1ccccc1-n1nccn1
b = CCOC(=O)c1ccccc1C(=O)N1C[C@H](Oc2cc(C#N)ccn2)CC[C@H]1C
Input line: Given a and b , report the one with the higher recorded pIC50. Label of pick, please.
Output line: a
(a: 6.43, b: 5.15)

1 = C[C@@H]1CC[C@@H](Oc2cc(Br)ccn2)CN1C(=O)c1ccccc1-n1nccn1
2 = Cc1cccc(O[C@@H]2CC[C@@H](C)N(C(=O)c3ccccc3-n3nccn3)C2)n1
Input line: // compare measured pIC50 between 1 and 2 ; output the lower one Label of pick, please.
Output line: 2
(2: 6.13, 1: 6.42)

Sourced from ChEMBL document CHEMBL3425449
